pIC50: recorded values
experimental_system: human Chk2 kinase (Homo sapiens)
experiment_notes: biochemical
pIC50: −log10 of the molar value.

Solved cases (3 shown):
CN1CCN(c2ccc(-n3cnc(Nc4cnc(C#N)cn4)c3)cc2)CC1 = 4.00 to 5.00
COc1cc(N2CC[C@@H](N3CCCC3)C2)ccc1-n1cnc(Nc2cnc(C#N)cn2)c1 = 5.00 to 6.00
COc1cc(CN2CCOCC2)ccc1-n1cnc(Nc2cnc(C#N)cn2)c1 = 4.00 to 5.00

Could you now look at the following molecule, please?
Input: Consider the molecule shown here: `CN(C)[C@@H]1CCN(c2ccc(-n3cnc(Nc4cnc(C#N)cn4)c3)cc2C(F)(F)F)C1` What is its recorded pIC50?
Output: 5.00 to 6.00

* * *

experimental_system: human Chk2 kinase (Homo sapiens, UniProt O96017)
Sequence (O96017 whole entry): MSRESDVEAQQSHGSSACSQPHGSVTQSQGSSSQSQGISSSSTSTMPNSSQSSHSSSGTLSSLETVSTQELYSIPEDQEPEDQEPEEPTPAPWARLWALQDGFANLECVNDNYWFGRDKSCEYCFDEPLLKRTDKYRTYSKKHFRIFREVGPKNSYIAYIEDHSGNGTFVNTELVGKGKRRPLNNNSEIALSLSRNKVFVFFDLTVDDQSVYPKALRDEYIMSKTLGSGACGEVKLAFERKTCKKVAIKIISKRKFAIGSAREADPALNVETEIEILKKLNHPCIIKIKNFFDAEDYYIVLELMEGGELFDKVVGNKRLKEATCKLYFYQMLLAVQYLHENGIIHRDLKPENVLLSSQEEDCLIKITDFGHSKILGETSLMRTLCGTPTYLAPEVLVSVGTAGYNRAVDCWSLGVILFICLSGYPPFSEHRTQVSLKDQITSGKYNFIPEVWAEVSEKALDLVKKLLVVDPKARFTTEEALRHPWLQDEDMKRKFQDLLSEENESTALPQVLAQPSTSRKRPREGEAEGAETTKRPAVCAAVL
experiment_notes: biochemical
quantity_kind: IC50

Would you please look over these solved cases?
CN1C[C@@H]2CN(c3ccc(-n4cnc(Nc5cnc(C#N)cn5)c4)cc3)C[C@@H]2C1 = 10 to 100 µM
CN(C)C1CCCN(c2ccc(-n3cnc(Nc4cnc(C#N)cn4)c3)cc2)C1 (single isomer, unassigned) [Example 121] = > 100 µM
N#Cc1cnc(Nc2cn(-c3ccc(N4C[C@H](N)[C@@H](F)C4)cc3)cn2)cn1 = 10 to 100 µM

Here is the next item to consider.
Input: Value lookup for IC50; key = `N#Cc1cnc(Nc2cn(-c3ccc(N4CCN(CCF)CC4)cc3)cn2)cn1`
Output: 10 to 100 µM

* * *

experimental_system: human Chk2 kinase (Homo sapiens)
experiment_notes: biochemical
pIC50: −log10 of the molar value.
Quick reference: pIC50 of the listed items.

CN(CCO)C1CCN(c2cccc(-n3cnc(Nc4cnc(C#N)cn4)c3)c2)C1 (single isomer, unassigned) [Example 109] = < 4.00
C[C@@H]1CN(c2ccc(-n3cnc(Nc4cnc(C#N)cn4)c3)cc2)C[C@@H]1N(C)C = 4.00 to 5.00
CN1C[C@H]2C[C@@H]1CN2c1ccc(-n2cnc(Nc3cnc(C#N)cn3)c2)cc1 = 4.00 to 5.00
N#Cc1cnc(Nc2cn(-c3cccc(N4CCN5CCC[C@H]5C4)c3)cn2)cn1 = < 4.00

Input: pIC50 lookup needed for `CN1CC2(CCN(c3ccc(-n4cnc(Nc5cnc(C#N)cn5)c4)cc3)C2)C1` , thanks.
Output: 4.00 to 5.00

Input: Value lookup for pIC50; key = `CC(C)N[C@@H]1CCN(c2ccc(-n3cnc(Nc4cnc(C#N)cn4)c3)cc2)C1`
Output: 4.00 to 5.00

Input: Reported pIC50, compound `COc1cc(N2C[C@H]3CCN(C)[C@H]3C2)ccc1-n1cnc(Nc2cnc(C#N)cn2)c1` : ____
Output: 4.00 to 5.00

* * *

experimental_system: RSK4 (Homo sapiens, UniProt Q9UK32)
Sequence (Q9UK32 whole entry): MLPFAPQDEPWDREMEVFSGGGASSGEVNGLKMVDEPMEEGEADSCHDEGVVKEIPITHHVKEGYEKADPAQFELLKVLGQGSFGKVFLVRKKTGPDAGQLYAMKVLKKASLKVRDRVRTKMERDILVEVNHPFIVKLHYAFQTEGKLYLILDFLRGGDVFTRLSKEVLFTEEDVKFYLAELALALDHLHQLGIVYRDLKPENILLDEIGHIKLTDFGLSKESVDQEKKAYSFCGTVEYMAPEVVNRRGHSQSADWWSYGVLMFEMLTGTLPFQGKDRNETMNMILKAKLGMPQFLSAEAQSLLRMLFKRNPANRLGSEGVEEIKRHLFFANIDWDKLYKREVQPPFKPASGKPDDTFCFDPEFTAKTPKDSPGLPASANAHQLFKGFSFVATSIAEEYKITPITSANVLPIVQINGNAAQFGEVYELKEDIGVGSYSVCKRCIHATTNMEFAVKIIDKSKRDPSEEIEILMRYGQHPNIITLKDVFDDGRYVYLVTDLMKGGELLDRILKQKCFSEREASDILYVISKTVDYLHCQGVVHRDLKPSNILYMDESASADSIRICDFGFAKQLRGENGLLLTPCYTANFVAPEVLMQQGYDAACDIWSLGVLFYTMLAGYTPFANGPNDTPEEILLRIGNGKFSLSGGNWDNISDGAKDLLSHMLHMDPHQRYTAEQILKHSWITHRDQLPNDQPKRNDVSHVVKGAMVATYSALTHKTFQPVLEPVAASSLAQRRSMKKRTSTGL
quantity_kind: IC50 (µM)
# number only, unit µM dropped from output

CN(C)[C@@H]1CCN(c2ccc(-n3cnc(Nc4cnc(C#N)cn4)c3)cc2)C1 = 9.2

Please turn your attention to the following entry.
Input: GET /values?readout=IC50&system=RSK4 (Homo sapiens, UniProt Q9UK32)&item= `C[C@@H]1C[C@@H](N2CCC2)CN1c1ccc(-n2cnc(Nc3cnc(C#N)cn3)c2)cc1`
Output: 2.47

* * *

experimental_system: human Chk2 kinase (Homo sapiens, UniProt O96017)
experiment_notes: biochemical
quantity_kind: IC50

CC(C)N1CCN(c2ccc(-n3cnc(Nc4cnc(C#N)cn4)c3)cc2)CC1 = > 100 µM

Input: What measured IC50 is associated with `CN(C)[C@]1(C)CCN(c2ccc(-n3cnc(Nc4cnc(C#N)cn4)c3)cc2)C1` on human Chk2 kinase (Homo sapiens, UniProt O96017)?
Output: 1 to 10 µM

Input: Record `CN1CCN(Cc2ccc(-n3cnc(Nc4cnc(C#N)cn4)c3)cc2)CC1` : what is its IC50 with human Chk2 kinase (Homo sapiens, UniProt O96017)?
Output: > 100 µM

Input: API: value(readout=IC50, system=human Chk2 kinase (Homo sapiens, UniProt O96017)) for record `CC(C)(C)N1CC(Oc2ccc(-n3cnc(Nc4cnc(C#N)cn4)c3)cc2)C1`
Output: 10 to 100 µM

* * *

Target sequence: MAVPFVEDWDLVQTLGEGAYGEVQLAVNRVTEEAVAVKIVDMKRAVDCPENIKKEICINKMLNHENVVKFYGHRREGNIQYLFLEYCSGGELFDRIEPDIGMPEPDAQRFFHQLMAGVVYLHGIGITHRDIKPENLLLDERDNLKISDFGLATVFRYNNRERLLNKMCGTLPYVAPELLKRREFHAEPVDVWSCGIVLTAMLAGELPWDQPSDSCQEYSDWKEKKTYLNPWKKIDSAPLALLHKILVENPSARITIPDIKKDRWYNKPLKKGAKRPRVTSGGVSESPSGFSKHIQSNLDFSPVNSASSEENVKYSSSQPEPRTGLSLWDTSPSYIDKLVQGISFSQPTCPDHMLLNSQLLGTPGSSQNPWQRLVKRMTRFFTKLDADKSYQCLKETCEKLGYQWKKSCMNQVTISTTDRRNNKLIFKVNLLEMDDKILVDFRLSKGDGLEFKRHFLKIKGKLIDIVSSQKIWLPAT
pIC50: −log10 of the molar value.
quantity_kind: pIC50

CN(C)[C@H]1CCN(c2ccc(-n3cnc(Nc4cnc(C#N)cn4)c3)cc2)C1 [Example 15] = 7.00 to 7.50
COc1cc(N2CCN(C)C[C@@H]2C)ccc1-n1cnc(Nc2cnc(C#N)cn2)c1 [Example 31] = 7.50 to 8.00
[2H]C([2H])([2H])N([C@@H]1CCN(c2ccc(-n3cnc(Nc4cnc(C#N)cn4)c3)cc2)C1)C([2H])([2H])[2H] [Example 84] = > 8.00
CN1CC2(CCN2c2ccc(-n3cnc(Nc4cnc(C#N)cn4)c3)cc2)C1 [Example 99] = 7.50 to 8.00
CN1CCN(Cc2ccc(-n3cnc(Nc4cnc(C#N)cn4)c3)cc2)CC1 [Example 7] = 6.50 to 7.00
Cc1nc(-n2cnc(Nc3cnc(C#N)cn3)c2)ccc1N1CC[C@@H](N(C)C)C1 [Example 59] = > 8.00

Input: Look up pIC50 for this molecule: CC1(C)CCN1C1CCN(c2ccc(-n3cnc(Nc4cnc(C#N)cn4)c3)cc2)C1 (single isomer, unassigned) [Example 140]
Output: > 8.00

Input: Fill in: pIC50 of CN1C[C@H](F)[C@H](Oc2cccc(-n3cnc(Nc4cnc(C#N)cn4)c3)c2)C1 [Example 56] is ___
Output: 6.50 to 7.00

* * *

Reported values of pIC50 for individual entries
experimental_system: RSK3 (Homo sapiens)
Sequence (Q15349 whole entry): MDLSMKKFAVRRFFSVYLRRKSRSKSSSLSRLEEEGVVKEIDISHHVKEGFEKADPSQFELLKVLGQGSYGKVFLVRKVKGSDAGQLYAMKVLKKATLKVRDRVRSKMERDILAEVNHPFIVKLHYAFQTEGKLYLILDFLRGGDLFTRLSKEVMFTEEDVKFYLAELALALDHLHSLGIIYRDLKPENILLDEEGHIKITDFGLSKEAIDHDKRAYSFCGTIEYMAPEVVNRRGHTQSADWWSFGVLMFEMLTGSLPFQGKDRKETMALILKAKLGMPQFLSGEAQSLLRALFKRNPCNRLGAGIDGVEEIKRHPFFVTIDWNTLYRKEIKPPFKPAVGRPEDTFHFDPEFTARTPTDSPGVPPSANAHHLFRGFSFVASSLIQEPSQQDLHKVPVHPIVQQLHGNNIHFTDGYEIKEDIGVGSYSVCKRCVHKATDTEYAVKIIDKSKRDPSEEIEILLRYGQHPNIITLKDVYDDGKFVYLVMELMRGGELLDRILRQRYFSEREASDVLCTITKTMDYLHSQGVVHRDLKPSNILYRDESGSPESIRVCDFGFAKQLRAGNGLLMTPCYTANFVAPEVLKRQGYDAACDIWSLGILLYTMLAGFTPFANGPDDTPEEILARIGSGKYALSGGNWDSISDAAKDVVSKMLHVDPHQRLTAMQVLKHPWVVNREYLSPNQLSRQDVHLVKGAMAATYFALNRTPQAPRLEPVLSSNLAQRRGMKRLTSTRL
pIC50 (log units): -log10 of the concentration in mol/L.

Below: 8 compounds and their reported pIC50.
COc1cc(C2(F)CCN(C)CC2)ccc1-c1cc(Nc2cnc(C#N)cn2)n[nH]1 [Comparator Ex. 4, reference compound] = 7.46
N#Cc1cnc(Nc2cn(-c3ccccc3OCCCN)cn2)cn1 = 5.23
CN(C)[C@@H]1CCN(c2ccc(-n3cnc(Nc4cnc(C#N)cn4)c3)cc2)C1 = 5.36
CN1CCN(c2ccc(-n3cnc(Nc4cnc(C#N)cn4)c3)cc2)CC1 = 5.68
CN1CCC12CN(c1ccc(-n3cnc(Nc4cnc(C#N)cn4)c3)cc1)C2 = 5.72
COc1cc(N2CCN(C)CC2)ccc1-c1cc(Nc2cnc(C#N)cn2)n[nH]1 [Comparator Ex. 2, reference compound] = 7.62
COc1cccc(OCCCN)c1-c1cc(Nc2cnc(C#N)cn2)n[nH]1 [Comparator Ex. 1, reference compound] = 8.40
C[C@@H]1C[C@@H](N2CCC2)CN1c1ccc(-n2cnc(Nc3cnc(C#N)cn3)c2)cc1 = 6.19

Input: Param item = CCNCc1ccc(-c2cc(Nc3cnc(C#N)cn3)n[nH]2)c(OC)c1 [Comparator Ex. 3, reference compound] ; retrieve measured pIC50.
Output: 7.22

Input: Any idea what pIC50 was measured for `CN(C)[C@@H]1CCN(c2ccc(-n3cnc(Nc4cnc(C#N)cn4)c3)nc2)C1` ?
Output: 5.99

* * *

Below, each of the molecules is paired with its reported IC50 value.
Protein target, amino acids: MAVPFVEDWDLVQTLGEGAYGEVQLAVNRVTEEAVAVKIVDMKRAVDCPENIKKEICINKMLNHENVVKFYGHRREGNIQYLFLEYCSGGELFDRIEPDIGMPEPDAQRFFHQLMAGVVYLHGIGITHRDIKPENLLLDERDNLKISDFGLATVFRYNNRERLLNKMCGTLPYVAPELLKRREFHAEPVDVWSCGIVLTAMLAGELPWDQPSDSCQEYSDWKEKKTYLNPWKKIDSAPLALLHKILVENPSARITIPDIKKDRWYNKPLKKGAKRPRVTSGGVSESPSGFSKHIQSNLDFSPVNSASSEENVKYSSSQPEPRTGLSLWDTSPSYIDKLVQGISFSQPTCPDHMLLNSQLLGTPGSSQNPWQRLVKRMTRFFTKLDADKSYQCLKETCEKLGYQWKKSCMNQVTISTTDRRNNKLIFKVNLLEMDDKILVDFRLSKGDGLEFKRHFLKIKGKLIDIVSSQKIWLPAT

Reference set (3 entries):
C[N+](C)([O-])[C@@H]1CCN(c2ccc(-n3cnc(Nc4cnc(C#N)cn4)c3)cc2)C1 = 100 to 316 nM
CN(C)CC1CN(c2cccc(-n3cnc(Nc4cnc(C#N)cn4)c3)c2)CCO1 (single isomer, unassigned) [Example 108] = 10 to 31.6 nM
C[C@H]1CN(c2ccc(-n3cnc(Nc4cnc(C#N)cn4)c3)cc2)C[C@@H]1N(C)C = < 10 nM

Continue with the next molecule.
Input: Tell me the measured IC50 of `N#Cc1cnc(Nc2cn(-c3ccc(N4CC[C@@H](N5CCCC5)C4)cc3)cn2)cn1` , please.
Output: 10 to 31.6 nM
